Hello, the source for this data is patent US9708336B2, in case you need it.

test_system: VIM-1 (Pseudomonas aeruginosa (strain ATCC 15692 / DSM 22644 / CIP 104116 / JCM 14847 / LMG 12228 / 1C / PRS 101 / PAO1))
method_description: Enzyme activity: determination of IC50, fluorescence assay with CCF2-FA substrate (VIM-1)
Format: biochemical
stated_conditions: VIM-1 enzyme, CCF2-FA fluorescence assay; read-out: VIM-1 IC50
pIC50: −log10 of the molar value.
pIC50 by entry:
readout_kind: pIC50

• NS(=O)(=O)c1c(CC2(F)CCNCC2)ccc(-c2ccc(C3CCNCC3)cc2)c1-c1nn[nH]n1 [Example 464] = 8.71
• Cl.Cl.NC1(c2ccc(-c3cccc(S(N)(=O)=O)c3-c3nn[nH]n3)cc2)CCNCC1 [Example 283, dihydrochloride] = 6.51
• NS(=O)(=O)c1c(C(F)(F)F)ccc(-c2ccc3c(c2)CNC3)c1-c1nn[nH]n1 [Example 441] = 9.08
• NS(=O)(=O)c1cccc(-c2ccc(CNCc3nn[nH]n3)cc2)c1-c1nnn[nH]1 [Example 381] = 6.45
• NS(=O)(=O)c1c(CC2CCNCC2)ccc(-c2ccc(C3CCN(CC4CNC4)CC3)cc2)c1-c1nn[nH]n1 [Example 470] = 7.00
• N=C(N)NC1Cc2ccc(-c3ccc(C(F)(F)F)c(S(N)(=O)=O)c3-c3nn[nH]n3)cc2C1 (stereo not drawn) [Example 447] = 9.77
• Nc1cccn2c(-c3cccc(S(N)(=O)=O)c3-c3nnn[nH]3)cnc12 [Example 418] = 7.89
• NS(=O)(=O)c1c(C(F)(F)F)ccc(-c2cnc3cc[nH]c3c2)c1-c1nnn[nH]1 [Example 474] = 9.26
• CNC(=O)CNCc1ccc(-c2cccc(S(N)(=O)=O)c2-c2nnn[nH]2)cc1 [Example 371] = 6.43
• NS(=O)(=O)c1cccc(C(=O)O)c1-c1nn[nH]n1 [Example 297] = 4.70
• NC(=O)CNCc1ccc(-c2cccc(S(N)(=O)=O)c2-c2nnn[nH]2)cc1 [Example 340] = 6.80
• NS(=O)(=O)c1cccc(-c2ccc(CNC3CCC(=O)NC3)cc2)c1-c1nnn[nH]1 (stereo not drawn) [Example 375] = 6.27
• CCC(CO)NCc1ccc(-c2cccc(S(N)(=O)=O)c2-c2nnn[nH]2)cc1 (stereo in doubt) [Example 345] = 6.57
• CC(O)C1CCN(Cc2ccc(-c3cccc(S(N)(=O)=O)c3-c3nnn[nH]3)cc2)C1 (stereo not drawn) [Example 351] = 6.38
• NS(=O)(=O)c1cccc(-c2ccc(CN3CC(O)C(F)C3)cc2)c1-c1nnn[nH]1 (stereo not drawn) [Example 396] = 6.74

----------
IC50 by entry:
test_system: VIM-1 (Pseudomonas aeruginosa (strain ATCC 15692 / DSM 22644 / CIP 104116 / JCM 14847 / LMG 12228 / 1C / PRS 101 / PAO1), UniProt A0A0F7KYQ8)
method_description: Enzyme activity: determination of IC50, fluorescence assay with CCF2-FA substrate (VIM-1)
Type: biochemical
stated_conditions: VIM-1 IC50, fluorescence assay with CCF2-FA substrate
readout_kind: IC50 (µM)

- NCC1CCN(c2ccc(C(F)(F)F)c(S(N)(=O)=O)c2-c2nnn[nH]2)CC1: 0.000496
- NS(=O)(=O)c1c(C(F)(F)F)ccc(-c2ccc(C3CCN(C4CNC4)CC3)cc2)c1-c1nnn[nH]1: 0.018
- NCCN[C@H]1CC[C@@H](c2ccc(C(F)(F)F)c(S(N)(=O)=O)c2-c2nnn[nH]2)CC1: 0.0733
- CN(c1ccnc(S(N)(=O)=O)c1-c1nnn[nH]1)C1CCCCC1: 0.166
- NS(=O)(=O)c1cncc(-c2ccc(CO)cc2)c1-c1nnn[nH]1: 0.685
- NC1CN(C2CCN(c3ccc(C(F)(F)F)c(S(N)(=O)=O)c3-c3nnn[nH]3)CC2)C1: 0.00244
- CN(C)CCCOc1ccc(-c2cccc(S(N)(=O)=O)c2-c2nn[nH]n2)cn1: 0.875
- CS(=O)(=O)Nc1ccc(-c2cccc(S(N)(=O)=O)c2-c2nn[nH]n2)cc1: 0.00779
- NCC1CCC(N2CC(c3ccc(-c4ccc(C(F)(F)F)c(S(N)(=O)=O)c4-c4nnn[nH]4)cc3)C2)CC1 (stereo not drawn): 0.0206
- CS(=O)(=O)c1ccc(-c2cccc(S(N)(=O)=O)c2-c2nn[nH]n2)cc1: 0.0671
- NS(=O)(=O)c1cccc(-c2ccc(N3CCCCC3)cc2)c1-c1nn[nH]n1: 0.326
- Cn1cncc1C1CCN(c2ccnc(S(N)(=O)=O)c2-c2nnn[nH]2)CC1: 0.164
- NS(=O)(=O)c1cccc(-c2cn(S(=O)(=O)c3ccccc3)c3ncccc23)c1-c1nn[nH]n1: 0.000637
- NS(=O)(=O)c1cccc(-c2cnc(NCCO)nc2)c1-c1nnn[nH]1: 0.172
- NS(=O)(=O)c1c(C(F)(F)F)ccc(-c2ccc(C3CCN(C4CC5CCC4N5)CC3)cc2)c1-c1nnn[nH]1 (stereo not drawn): 0.0357
- N=C(N)N1CCC2(CC1)CCN(c1ccc(C(F)(F)F)c(S(N)(=O)=O)c1-c1nnn[nH]1)CC2: 0.000195
- COc1ccc(-c2cccc(S(N)(=O)=O)c2-c2nn[nH]n2)cc1: 0.0798
- NS(=O)(=O)c1nccc(-c2ccc(C(=O)O)cc2)c1-c1nnn[nH]1: 0.173
- CS(=O)(=O)NC1CCC(c2cccc(S(N)(=O)=O)c2-c2nn[nH]n2)CC1 (stereo not drawn): 0.0576
- NS(=O)(=O)c1cccc(-c2cc(F)cc(F)c2)c1-c1nnn[nH]1: 0.0379
- NS(=O)(=O)c1cccc(-c2ccc(C(=O)NC3CC3)cc2)c1-c1nn[nH]n1: 0.466
- NS(=O)(=O)c1c(C(F)(F)F)ccc(-c2cnc3ccccn23)c1-c1nnn[nH]1: 0.000248
- COC(=O)c1ccc(-c2ccnc(S(N)(=O)=O)c2-c2nnn[nH]2)cc1: 0.0914
- NS(=O)(=O)c1nccc(-c2ccc3c(c2)CC(=O)N3)c1-c1nn[nH]n1: 0.0671
- CC(C)(C)c1cccc(S(N)(=O)=O)c1-c1nnn[nH]1: 0.874
- NS(=O)(=O)c1nccc(-c2ccc(N3CCOCC3)nc2)c1-c1nn[nH]n1: 0.568
- NC1(C2CCN(c3ccc(C(F)(F)F)c(S(N)(=O)=O)c3-c3nnn[nH]3)C2)CC1 (stereo not drawn): 0.00852
- NCCNC1CCC(c2ccc(C(F)(F)F)c(S(N)(=O)=O)c2-c2nnn[nH]2)CC1 (stereo not drawn): 0.00259
- NS(=O)(=O)c1nccc(N2CCC(c3ccncc3)CC2)c1-c1nnn[nH]1: 0.0493
- CN(Cc1ccccc1)c1ccnc(S(N)(=O)=O)c1-c1nnn[nH]1: 0.00222

----------
test_system: VIM-1 (Pseudomonas aeruginosa (strain ATCC 15692 / DSM 22644 / CIP 104116 / JCM 14847 / LMG 12228 / 1C / PRS 101 / PAO1), UniProt A0A0F7KYQ8)
method_description: Enzyme activity: determination of IC50, fluorescence assay with CCF2-FA substrate (VIM-1)
Type: biochemical
stated_conditions: fluorescence assay with CCF2-FA substrate; read-out: VIM-1 IC50
readout_kind: IC50

- NS(=O)(=O)c1cccc(-c2ccc3c(=O)nc[nH]c3c2)c1-c1nn[nH]n1 [Example 69]: 0.0264 µM
- Nc1cncc(-c2cccc(S(N)(=O)=O)c2-c2nnn[nH]2)n1 [Example 137]: 0.561 µM
- COc1ccc(-c2cccc(S(N)(=O)=O)c2-c2nn[nH]n2)cn1 [Example 78]: 0.147 µM
- NC1CCN(c2ccc(C(F)(F)F)c(S(N)(=O)=O)c2-c2nnn[nH]2)CC1 [Example 778]: 0.000688 µM
- C[C@@H]1NC(=O)O[C@H]1c1ccc(-c2cccc(S(N)(=O)=O)c2-c2nnn[nH]2)cc1 [Example 29]: 0.0528 µM
- CC(=O)Nc1ccc(-c2ccnc(S(N)(=O)=O)c2-c2nn[nH]n2)cc1 [Example 214]: 0.129 µM

----------
test_system: VIM-1 (Pseudomonas aeruginosa (strain ATCC 15692 / DSM 22644 / CIP 104116 / JCM 14847 / LMG 12228 / 1C / PRS 101 / PAO1))
method_description: Enzyme activity: determination of IC50, fluorescence assay with CCF2-FA substrate (VIM-1)
Assay type: biochemical
stated_conditions: fluorescence assay with CCF2-FA substrate; read-out: VIM-1 IC50
readout_kind: IC50 (nM)

* NS(=O)(=O)c1cccc(-c2ccccn2)c1-c1nn[nH]n1 [Example 93] | 89.8
* NS(=O)(=O)c1cccc(-c2cnc(C3(O)CCC3)s2)c1-c1nn[nH]n1 [Example 21] | 564
* NS(=O)(=O)c1nccc(N2CCC(c3cccnc3)CC2)c1-c1nnn[nH]1 [Example 218] | 106
* NS(=O)(=O)c1c(C(F)(F)F)ccc(C2CCC3(CCNCC3)CC2)c1-c1nnn[nH]1 [Example 833] | 3.33
* NS(=O)(=O)c1cccc(CCc2ccccn2)c1-c1nnn[nH]1 [Example 144] | 1540
* N=C(N)NC1CCN(c2ccc(C(F)(F)F)c(S(N)(=O)=O)c2-c2nnn[nH]2)CC1 [Example 824] | 0.702
* NS(=O)(=O)c1cccc(-c2ccc3cn[nH]c3c2)c1-c1nn[nH]n1 [Example 90] | 15.5
* NS(=O)(=O)c1cccc(C2CCCNC2)c1-c1nn[nH]n1 (stereo not drawn) [Example 175] | 3090
* NS(=O)(=O)c1cccc(C2CC2)c1-c1nnn[nH]1 [Example 157] | 1050
* CN1CCC=C(c2cccc(S(N)(=O)=O)c2-c2nn[nH]n2)C1 [Example 65] | 4990
* NS(=O)(=O)c1cccc(C2CCC(N3CCNCC3)CC2)c1-c1nn[nH]n1 (stereo not drawn) [Example 170] | 3470
* NS(=O)(=O)c1nccc(N2CCCC(c3ccccn3)C2)c1-c1nnn[nH]1 (stereo not drawn) [Example 220] | 234
* Cc1ccc(Oc2cccc(S(N)(=O)=O)c2-c2nn[nH]n2)cc1 [Example 179] | 1440
* NS(=O)(=O)c1cccc(-c2ccc3ncccc3c2)c1-c1nn[nH]n1 [Example 66] | 29.1
* NS(=O)(=O)c1nccc(-c2ccc3c(c2)CNC3=O)c1-c1nnn[nH]1 [Example 192] | 98.1
* NS(=O)(=O)c1c(C(F)(F)F)ccc(-c2cccn3ncnc23)c1-c1nnn[nH]1 [Example 840] | 0.46
* CC(C)c1cccc(S(N)(=O)=O)c1-c1nnn[nH]1 [Example 156] | 391
* CCNC(=O)N1CCC(c2cccc(S(N)(=O)=O)c2-c2nn[nH]n2)CC1 [Example 174] | 262
* CN1CCN(c2ncc(-c3cccc(S(N)(=O)=O)c3-c3nnn[nH]3)cn2)CC1 [Example 128] | 1140
* Cn1ccc(-c2cccc(S(N)(=O)=O)c2-c2nn[nH]n2)n1 [Example 97] | 1620
* NS(=O)(=O)c1c(C(F)(F)F)ccc(N2CCC(C3CCNCC3)CC2)c1-c1nnn[nH]1 [Example 779] | 0.11
* NS(=O)(=O)c1cccc(-c2ccc(-c3ccn[nH]3)cc2)c1-c1nn[nH]n1 [Example 50] | 89.1
* CNS(=O)(=O)c1ccc(-c2cccc(S(N)(=O)=O)c2-c2nn[nH]n2)cc1 [Example 57] | 29.7
* NS(=O)(=O)c1c(C(F)(F)F)ccc(NC2(C3CCNC3)CC2)c1-c1nnn[nH]1 (stereo not drawn) [Example 777] | 6.73
